The values you see were collected from patent US20170355757A1.

Target: African green monkey C5 (African green monkey)
Test: cell-based or functional assay
measuredParameter: AGM CP % Max Inhibition, hemolysis assay, 5% serum
Answer format reminder: number followed by unit.

- H4H12175P (antibody, human IgG4, V domains shown, H4H: human IgG4 Fc with S108P hinge mutation) VH: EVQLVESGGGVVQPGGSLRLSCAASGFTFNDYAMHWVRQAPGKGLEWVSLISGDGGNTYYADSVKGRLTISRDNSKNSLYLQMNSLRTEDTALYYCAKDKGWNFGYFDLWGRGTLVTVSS VL: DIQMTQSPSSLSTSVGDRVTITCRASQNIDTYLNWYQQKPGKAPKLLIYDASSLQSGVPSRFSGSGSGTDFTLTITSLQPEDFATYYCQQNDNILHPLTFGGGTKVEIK: 84.5%
- H4H12171P (antibody, human IgG4, V domains shown, H4H: human IgG4 Fc with S108P hinge mutation) VH: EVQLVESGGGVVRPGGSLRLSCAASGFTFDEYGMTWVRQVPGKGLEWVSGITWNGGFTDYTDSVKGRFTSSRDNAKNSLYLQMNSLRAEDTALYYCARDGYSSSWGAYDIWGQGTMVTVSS VL: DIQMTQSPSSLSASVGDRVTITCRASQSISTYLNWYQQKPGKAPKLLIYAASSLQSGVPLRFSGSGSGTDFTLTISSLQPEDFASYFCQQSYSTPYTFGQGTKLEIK: 17.8%
- H4H12169P (antibody, human IgG4, V domains shown, H4H: human IgG4 Fc with S108P hinge mutation) VH: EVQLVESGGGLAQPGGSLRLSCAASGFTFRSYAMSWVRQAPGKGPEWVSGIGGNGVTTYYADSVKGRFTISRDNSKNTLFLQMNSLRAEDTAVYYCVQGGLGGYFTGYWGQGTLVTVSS VL: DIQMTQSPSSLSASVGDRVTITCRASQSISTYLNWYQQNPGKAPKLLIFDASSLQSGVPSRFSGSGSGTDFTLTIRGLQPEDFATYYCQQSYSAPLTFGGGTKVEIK: 43.3%

Attention now shifts to the item below.
## Task AGM CP % Max Inhibition, hemolysis assay, 5% serum lookup needed for H4H12159P (antibody, human IgG4, V domains shown, H4H: human IgG4 Fc with S108P hinge mutation) VH: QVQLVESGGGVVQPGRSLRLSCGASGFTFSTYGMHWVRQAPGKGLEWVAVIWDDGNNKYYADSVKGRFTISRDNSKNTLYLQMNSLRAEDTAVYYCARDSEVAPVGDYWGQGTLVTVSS VL: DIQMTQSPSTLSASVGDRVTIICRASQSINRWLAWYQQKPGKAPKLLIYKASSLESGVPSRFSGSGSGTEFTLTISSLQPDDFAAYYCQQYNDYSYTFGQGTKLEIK , thanks.
## Result 93.4%
